assay: Binding affinity to HIV1 YU-2 gp120 by isothermal titration calorimetric analysis; design: species or system Human immunodeficiency virus 1
ENDPOINT NAME: pKd
// field semantics: pKd = negative decimal log of concentration (mol/L)

SMILES TEXT | pKd
CN(Cc1ccc2c(c1)[C@H](NC(=O)C(=O)Nc1ccc(Cl)c(F)c1)[C@@H](CNC(=N)N)C2)C(=N)N | 7.02

Kindly consider the entry below.
Req: Provide pKd value for the following compound: "CN(Cc1ccc2c(c1)C[C@H](CNC(=N)N)[C@H]2NC(=O)C(=O)Nc1ccc(Cl)c(F)c1)C(=N)N"
Resp: 7.02

---

assay: Binding affinity to HIV1 YU-2 gp120 by isothermal titration calorimetric analysis; parameters: species or system Human immunodeficiency virus 1
Kd overview

SMILES TEXT | Kd
CNCc1ccc2c(c1)C[C@H](CNC(=N)N)[C@H]2NC(=O)C(=O)Nc1ccc(Cl)c(F)c1 | 47 nM

Req: Supply reported Kd belonging to this compound: "CNCc1ccc2c(c1)[C@H](NC(=O)C(=O)Nc1ccc(Cl)c(F)c1)[C@@H](CNC(=N)N)C2"
Resp: 24 nM

Req: Give me measured Kd, please, for this compound: "N=C(N)NC[C@H]1Cc2ccccc2[C@@H]1NC(=O)C(=O)Nc1ccc(Cl)c(F)c1"
Resp: 110 nM

Data origin: ChEMBL document CHEMBL4680075
